Where do these numbers come from? They come from ChEMBL document CHEMBL1697781.

- Test system: Hepatotoxicity
- method_description: FDA HLAED, lactate dehydrogenase (LDH) increase
- test_context: human
experimental_endpoint: LDH Increase - Number of Reports

Some solved entries appear below for comparison.
| compound | LDH Increase - Number of Reports |
| --- | --- |
| C[C@@H]1CN(c2c(F)c(N)c3c(=O)c(C(=O)O)cn(C4CC4)c3c2F)C[C@H](C)N1 | < 4 |
| CC(C)NCC(O)c1ccc(NS(C)(=O)=O)cc1 (configuration not stated) | < 4 |
| C=CCN1C[C@H](C(=O)N(CCCN(C)C)C(=O)NCC)C[C@@H]2c3cccc4[nH]cc(c34)C[C@H]21 | < 4 |
| CCCCC(C)(O)C/C=C/[C@H]1[C@H](O)CC(=O)[C@@H]1CCCCCCC(=O)OC (some centres not stated) | < 4 |
| Cc1ccc(Cl)c(Nc2ccccc2C(=O)O)c1Cl | < 4 |
| CNCCCC12CCC(c3ccccc31)c1ccccc12 | < 4 |
| O=S(=O)([O-])CCS.[Na+] | < 4 |
| CC(C)[C@H](N)C(=O)OCCOCn1cnc2c(=O)[nH]c(N)nc21 | < 4 |
| C#C[C@]1(O)CC[C@H]2[C@@H]3CCC4=CC(=O)CC[C@@H]4[C@H]3CC[C@@]21CC | >= 4 |
| COCC1=C(C(=O)O)N2C(=O)[C@@H](NC(=O)/C(=N\OC)c3csc(N)n3)[C@H]2SC1 | < 4 |

Query compound follows.
Task: Could you share which LDH Increase - Number of Reports value was measured for COc1cc(NCc2ccc3nc(N)nc(N)c3c2C)cc(OC)c1OC [TRIMETREXATE] ?
Result: < 4

###

- System: Hepatotoxicity
- method_description: FDA HLAED, alkaline phosphatase increase
- test_context: human
experimental_endpoint: Alkaline Phosphatase Increase - Index Value

Some solved entries appear below for comparison.
| compound | test_target | meas_value |
| --- | --- | --- |
| CO[C@H]1/C=C/O[C@@]2(C)Oc3c(C)c(O)c4c(O)c(c(/C=N/N5CCN(C)CC5)c(O)c4c3C2=O)NC(=O)/C(C)=C\C=C\[C@H](C)[C@H](O)[C@@H](C)[C@@H](O)[C@@H](C)[C@H](OC(C)=O)[C@@H]1C | Hepatotoxicity | No Shipping Units |
| C/C(=C\C(=O)OCCCCCCCCC(=O)O)C[C@@H]1OC[C@H](C[C@@H]2O[C@H]2[C@@H](C)[C@H](C)O)[C@@H](O)[C@H]1O | Hepatotoxicity | 0 |
| CC1(C)O[C@@H]2C[C@H]3[C@@H]4C[C@H](F)C5=CC(=O)C=C[C@]5(C)[C@H]4[C@@H](O)C[C@]3(C)[C@]2(C(=O)CO)O1 [FLUNISOLIDE] | Hepatotoxicity | 0 |
| OC[C@H]1O[C@@H](n2cnc3c2NC=NC[C@H]3O)C[C@@H]1O | Hepatotoxicity | 0 |
| CC(C(=O)O)c1ccc(-c2ccccc2)c(F)c1 (centres undefined) | Hepatotoxicity | 0.9 |
| CC(=O)CC(c1ccccc1)c1c(O)c2ccccc2oc1=O (centres undefined) | Hepatotoxicity | No Shipping Units |
| COc1ccc(C(CN(C)C)C2(O)CCCCC2)cc1 (centres undefined) | Hepatotoxicity | 1.3 |
| COCC1=C(C(=O)OC(C)OC(=O)OC(C)C)N2C(=O)[C@@H](NC(=O)/C(=N\OC)c3csc(N)n3)[C@H]2SC1 (some centres undefined) | Hepatotoxicity | 1 |

Task: // lookup Alkaline Phosphatase Increase - Index Value | system=Hepatotoxicity | key= O=C1CN=C(c2ccccc2)c2cc(Cl)ccc2N1CC(F)(F)F
Result: 0

Task: // lookup Alkaline Phosphatase Increase - Index Value | system=Hepatotoxicity | key= NC(=O)N1c2ccccc2C=Cc2ccccc21 [CARBAMAZEPINE]
Result: 3.3

Task: // lookup Alkaline Phosphatase Increase - Index Value | system=Hepatotoxicity | key= COc1ccc2cc(CCC(C)=O)ccc2c1
Result: 0.8

Task: // lookup Alkaline Phosphatase Increase - Index Value | system=Hepatotoxicity | key= CNCCCC12CCC(c3ccccc31)c1ccccc12
Result: 0.5

Task: // lookup Alkaline Phosphatase Increase - Index Value | system=Hepatotoxicity | key= CN1CCCC(n2nc(Cc3ccc(Cl)cc3)c3ccccc3c2=O)CC1 (centres undefined)
Result: 0

Task: // lookup Alkaline Phosphatase Increase - Index Value | system=Hepatotoxicity | key= C[C@@H](O)[C@H]1C(=O)N2C(C(=O)O)=C(S[C@@H]3CN[C@H](C(=O)N(C)C)C3)[C@H](C)[C@H]12
Result: 0
